Listed here: items and their measured melting point.
Respond with the bare value in °C.

Some solved entries appear below for comparison.
compound="O=C(c1cc(C2CCCN2c2cc(F)cc(F)c2)c2nc(N3CCOCC3)cnc2c1)N1CC(O)C1 (centres unmarked)" measured_number=80
compound="CC(Nc1ccc(F)c(F)c1)c1cc(C(=O)N(C)C2CCNC2)cc2ncc(N3CCOCC3)nc12 (centres unmarked) [Compound 323b]" measured_number=130
compound="O=C(O)c1cc(C2CCCN2c2cc(F)cc(F)c2)c2nc(N3CCOCC3)cnc2c1 (single isomer, unassigned) [Compound 251]" measured_number=299
compound="OC[C@@H]1CCCN1Cc1cc(C2CCCN2c2cc(F)cc(F)c2)c2nc(N3CCOCC3)cnc2c1 (single isomer, unassigned)" measured_number=80
compound="CC(Oc1ccccc1)c1cc(C(=O)N(C)C)cc2ncc(N3CCOCC3)nc12 (centres unmarked)" measured_number=80
compound="CC(c1cc(C(=O)N2CCOCC2)cc2ncc(N3CCOCC3)nc12)N(CCO)c1cc(F)cc(F)c1 (centres unmarked)" measured_number=80
compound="CC(Nc1cc(F)cc(F)c1)c1cc(C(=O)O)cc2ncc(N3CCOCC3)nc12 (single isomer, unassigned) [Compound 83c]" measured_number=157
compound=CN(C(=O)c1cc(NCc2cc(F)cc(F)c2)c2nc(N3CCOCC3)cnc2c1)[C@@H]1CCNC1 measured_number=80

Now take the following compound into account.
Ask: Query: melting point; subject: C[C@H](CO)NC(=O)c1cc(C2CCCN2c2cc(F)cc(F)c2)c2nc(N3CCOCC3)cnc2c1 (single isomer, unassigned)
Reply: 80

----------
pKd: recorded values
# Measurement target: PI3Kδ (Homo sapiens, UniProt O00329)
# Construct: purchased DiscoveRx Corporation, San Diego (contract service, KINOMEscan)
# Sequence (O00329 whole entry): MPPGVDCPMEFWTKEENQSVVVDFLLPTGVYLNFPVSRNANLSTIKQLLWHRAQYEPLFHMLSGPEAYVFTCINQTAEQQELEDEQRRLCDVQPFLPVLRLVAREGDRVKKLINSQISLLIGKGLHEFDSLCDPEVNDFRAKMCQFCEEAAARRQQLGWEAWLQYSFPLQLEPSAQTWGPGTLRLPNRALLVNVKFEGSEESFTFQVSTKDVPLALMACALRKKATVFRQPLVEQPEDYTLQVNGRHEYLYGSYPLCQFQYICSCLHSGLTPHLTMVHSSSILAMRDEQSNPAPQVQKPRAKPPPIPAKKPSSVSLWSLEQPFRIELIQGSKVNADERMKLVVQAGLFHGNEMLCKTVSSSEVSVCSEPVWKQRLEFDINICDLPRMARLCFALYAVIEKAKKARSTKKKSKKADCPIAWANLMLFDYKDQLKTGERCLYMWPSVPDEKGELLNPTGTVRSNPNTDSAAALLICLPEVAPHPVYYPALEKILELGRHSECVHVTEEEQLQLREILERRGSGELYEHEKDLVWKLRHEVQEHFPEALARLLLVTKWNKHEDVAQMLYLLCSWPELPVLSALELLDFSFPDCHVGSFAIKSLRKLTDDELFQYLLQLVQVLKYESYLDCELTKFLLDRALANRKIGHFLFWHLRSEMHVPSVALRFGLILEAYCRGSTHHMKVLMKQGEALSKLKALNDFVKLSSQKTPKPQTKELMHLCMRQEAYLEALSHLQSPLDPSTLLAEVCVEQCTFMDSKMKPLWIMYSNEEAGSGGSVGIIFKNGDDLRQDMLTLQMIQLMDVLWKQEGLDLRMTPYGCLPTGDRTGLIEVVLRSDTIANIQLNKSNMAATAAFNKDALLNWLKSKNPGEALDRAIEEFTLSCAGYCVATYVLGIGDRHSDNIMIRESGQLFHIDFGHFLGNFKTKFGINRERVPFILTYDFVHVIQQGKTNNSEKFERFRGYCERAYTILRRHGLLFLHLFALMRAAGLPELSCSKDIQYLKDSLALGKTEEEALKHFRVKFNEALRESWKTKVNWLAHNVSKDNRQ
# Assay: Enzyme binding assay (KINOMEscan, DiscoveRx)
# Run parameters: PIK3Cδ_h
Formally, pKd is defined as -log10 of the concentration c, with c in mol/L.

Previously resolved entries follow.
compound="CC(Nc1ccc(F)c(F)c1)c1cc(C(=O)N2CCN3CCC[C@H]3C2)cc2ncc(N3CCOCC3)nc12 (single isomer, unassigned) [Compound 287a]" reported_endpoint=pKd measured_number=6.63
compound="CC(C)N1CCN(C(=O)c2cc(C3CCCN3c3cc(F)cc(F)c3)c3nc(N4CCOCC4)cnc3c2)CC1 (stereo not shown)" reported_endpoint=pKd measured_number=6.71
compound=O=C(NCCO)c1cc(NCc2cc(F)cc(F)c2)c2nc(N3CCOCC3)cnc2c1 reported_endpoint=pKd measured_number=5.76
compound=CN(C)CCNC(=O)c1cc(CNc2cc(F)cc(F)c2)c2nc(N3CCOCC3)cnc2c1 reported_endpoint=pKd measured_number=6.11

Ask: What does the data say about its pKd? Entry: CC(Nc1ccc(F)c(F)c1)c1cc(C(=O)NC2CCNC2)cc2ncc(N3CCOCC3)nc12 (stereo not shown) [Compound 325a]
Reply: 4.94

Ask: // lookup pKd for CC(Oc1cccc(F)c1)c1cc(C(=O)NCCO)cc2ncc(N3CCOCC3)nc12 (single isomer, unassigned) [Compound 334a]
Reply: 5.97

Ask: pKd lookup needed for CC(Nc1cccc(F)c1)c1cc(C(=O)N2CCC[C@H](O)C2)cc2ncc(N3CCOCC3)nc12 (single isomer, unassigned) [Compound 320a] , thanks.
Reply: 6.74
